target: human recombinant ROCK II (Homo sapiens); construct: recombinant human ROCK-II residues 11-552; His6 (N); assay: Determination of Rho kinase inhibition (ROCK II, Caliper peptide phosphorylation assay); settings: respective form (salt or free base) as obtained in the examples, 60 min at 32° C.
Sequence (O75116 11-552): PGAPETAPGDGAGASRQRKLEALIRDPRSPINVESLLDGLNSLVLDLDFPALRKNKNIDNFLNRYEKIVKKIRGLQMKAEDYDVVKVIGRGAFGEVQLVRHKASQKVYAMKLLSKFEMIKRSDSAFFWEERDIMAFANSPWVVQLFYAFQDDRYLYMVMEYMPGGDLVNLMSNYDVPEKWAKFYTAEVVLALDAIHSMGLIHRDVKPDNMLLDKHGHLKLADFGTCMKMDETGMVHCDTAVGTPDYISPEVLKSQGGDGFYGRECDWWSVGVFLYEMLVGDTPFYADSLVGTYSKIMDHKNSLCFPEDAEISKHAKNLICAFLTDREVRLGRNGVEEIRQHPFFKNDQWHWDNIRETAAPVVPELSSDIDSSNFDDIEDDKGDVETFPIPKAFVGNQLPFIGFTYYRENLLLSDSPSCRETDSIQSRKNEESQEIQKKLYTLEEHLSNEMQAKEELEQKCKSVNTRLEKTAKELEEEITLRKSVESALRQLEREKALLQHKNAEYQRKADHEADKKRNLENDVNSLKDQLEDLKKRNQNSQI
ASSAY_ENDPOINT: IC50

Please give the documented IC50 of CCC(N)[C@]1(CC)CC[C@H](Oc2cc3ccncc3cc2C)CC1 (stereo partly shown) [Example 56] 100 to 1000 nM

Please give the documented IC50 of CCC(N)C1(C(F)(F)F)CCC(Oc2cc3cc[nH]c(=O)c3cc2Cl)CC1 (single isomer, unassigned) [Example 103] ≤ 10 nM

Please give the documented IC50 of NC(c1ccccc1)C1(C2CCCC2)CCC(Oc2cc3cc[nH]c(=O)c3cc2Cl)CC1 (single isomer, unassigned) [Example 25] 10 to 100 nM

Please give the documented IC50 of CC[C@]1(C(C)N)CC[C@@H](Oc2c(F)cc3cnccc3c2C)CC1 (stereo partly shown) [Example 80] 100 to 1000 nM

Please give the documented IC50 of CC(C)C1(C(N)c2nccs2)CCC(Oc2cc3cc[nH]c(=O)c3cc2Cl)CC1 (single isomer, unassigned) [Example 46] 100 to 1000 nM

Please give the documented IC50 of NC(C1CC1)C1(CC2CC2)CCC(Oc2cc3cc[nH]c(=O)c3cc2Cl)CC1 (single isomer, unassigned) [Example 16] ≤ 10 nM

Please give the documented IC50 of CCC(N)[C@]1(CC2CCOCC2)CC[C@H](Oc2cc3cc[nH]c(=O)c3cc2Cl)CC1 (stereo partly shown) [Example 67] 10 to 100 nM

Please give the documented IC50 of CC[C@]1(C(C)N)CC[C@@H](Oc2c(F)cc3c(=O)[nH]ccc3c2C)CC1 (stereo partly shown) [Example 79] 100 to 1000 nM

Please give the documented IC50 of CCC1(C(N)CCOC)CCC(Oc2cc3cc[nH]c(=O)c3cc2Cl)CC1 (single isomer, unassigned) [Example 98] 10 to 100 nM

Please give the documented IC50 of CC(C)C(N)C1(C(C)C)CCC(Oc2cc3cc[nH]c(=O)c3cc2Cl)CC1 (stereo not shown) [Example 89] 100 to 1000 nM

Please give the documented IC50 of CCC(N)C1(C)CCC(Oc2cc3cc[nH]c(=O)c3cc2Cl)CC1 (single isomer, unassigned) [Example 27] 10 to 100 nM

Please give the documented IC50 of CC(N)C1(C2CCC2)CCC(Oc2cc3cc[nH]c(=O)c3cc2Cl)CC1 (single isomer, unassigned) [Example 21] 10 to 100 nM

Please give the documented IC50 of CCC(N)[C@]1(C2CCSCC2)CC[C@H](Oc2cc3cc[nH]c(=O)c3cc2Cl)CC1 (stereo partly shown) [Example 76] ≤ 10 nM

Please give the documented IC50 of CCC(N)[C@]1(C2CCOCC2)CC[C@H](Oc2cc3cc[nH]c(=O)c3cc2Cl)CC1 (single isomer, unassigned) [Example 2] 100 to 1000 nM

Please give the documented IC50 of C[C@]1(C(N)c2ccccc2)CC[C@@H](Oc2cc3cc[nH]c(=O)c3cc2Cl)CC1 (stereo partly shown) [Example 61] 10 to 100 nM

Please give the documented IC50 of CCCC[C@]1(C(N)CC)CC[C@@H](Oc2cc3cc[nH]c(=O)c3cc2Cl)CC1 (stereo partly shown) [Example 38] ≤ 10 nM

Please give the documented IC50 of CCC(N)[C@]1(C2CC2)CC[C@H](Oc2cc3cc[nH]c(=O)c3cc2Cl)CC1 (stereo partly shown) [Example 74] ≤ 10 nM

Please give the documented IC50 of CCC(N)[C@]1(CC)CC[C@H](Oc2c(F)cc3c(=O)[nH]ccc3c2C)CC1 (stereo partly shown) [Example 51] 100 to 1000 nM

Please give the documented IC50 of CCC1(C(C)N)CCC(Oc2cc3cc[nH]c(=O)c3cc2Cl)CC1 (single isomer, unassigned) [Example 4] 10 to 100 nM

* * *

Could you please report measured pIC50 for the items listed next?
biological target: human recombinant ROCK II (Homo sapiens); construct: recombinant human ROCK-II residues 11-552; His6 (N); test: Determination of Rho kinase inhibition (ROCK II, Caliper peptide phosphorylation assay); settings: respective form (salt or free base) as obtained in the examples, 60 min at 32° C.
pIC50: −log10 of the molar value.

Please give the documented pIC50 of CCC(N)C1(Cc2ccccc2)CCC(Oc2cc3cc[nH]c(=O)c3cc2Cl)CC1 (single isomer, unassigned) 7.00 to 8.00

Please give the documented pIC50 of CCC(N)C1(C2CCCC2)CCC(Oc2cc3cc[nH]c(=O)c3cc2Cl)CC1 (single isomer, unassigned) 7.00 to 8.00

Please give the documented pIC50 of NC(C1CC1)[C@]1(CCCC(F)(F)F)CC[C@H](Oc2cc3cc[nH]c(=O)c3cc2Cl)CC1 (some centres unmarked) ≥ 8.00

Please give the documented pIC50 of CC[C@]1(C(N)CF)CC[C@H](Oc2cc3cc[nH]c(=O)c3cc2Cl)CC1 (some centres unmarked) 7.00 to 8.00

Please give the documented pIC50 of CCC(NCC1CC1)[C@]1(CC)CC[C@H](Oc2cc3cc[nH]c(=O)c3cc2Cl)CC1 (some centres unmarked) 6.00 to 7.00
